STUDY TARGET: Mcl-1 protein (residues 171-323) (Homo sapiens (Human), UniProt Q07820)
Sequence (Q07820 171-323): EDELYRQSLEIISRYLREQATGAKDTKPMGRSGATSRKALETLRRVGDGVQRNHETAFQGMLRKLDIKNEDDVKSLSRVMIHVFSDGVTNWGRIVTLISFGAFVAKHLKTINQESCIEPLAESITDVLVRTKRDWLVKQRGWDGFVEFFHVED
MEASUREMENT KIND: IC50

// query Requested read-out IC50, target or system Mcl-1 protein (residues 171-323) (Homo sapiens (Human), UniProt Q07820), entry Cc1c(C(=O)O)n2c3ccc(Cl)c(c13)-c1c(nn(C)c1C)CN(S(C)(=O)=O)Cc1cc(n(C)n1)CSc1cc(c3ccc(F)cc3c1)OCCC2 [Cpd. No. 32]
// result 36 nM

// query `Cc1ccc2c3c(C)c(C(=O)O)n2CCCOc2cc(cc4cc(F)ccc24)SCc2cc(nn2C)CSCc2nn(C)c(C)c2-c13` ?
// result 15 nM

// query Also, `Cc1c2c(nn1C)CSCc1cc(n(C)n1)CSc1cc(c3ccccc3c1)OCCCn1c(C(=O)O)c(Cl)c3c-2c(Cl)ccc31` please.
// result 14 nM

// query Then what about the molecule Cc1c(C(=O)O)n2c3ccc(Cl)c(c13)-c1c(nn(C)c1C)CN(S(C)(=O)=O)Cc1cc(n(C)n1)CSc1cc(c3ccc(F)cc3c1)OCCC2 (atropisomer, axis not shown) [Cpd. No. 33] ?
// result 5 nM

// query Next up: `Cc1c(C(=O)O)n2c3ccc(Cl)c(c13)-c1c(nn3c1COCC3)CN(S(=O)(=O)C1CC1)Cc1cc(n(C)n1)CSc1cc(c3ccc(F)cc3c1)OCCC2`
// result 16 nM

// query Also, `COCCn1nc(C)c2c1CSCc1cc(n(C)n1)CSc1cc(c3ccccc3c1)OCCCn1c(C(=O)O)c(C)c3c-2c(Cl)ccc31` please.
// result 15 nM
